- System: Escherichia coli TOP10;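 also: peptides expressed intracellularly from a pBAD plasmid library in pooled LB shake-flask culture, induced with 0.3% L-arabinose, DNA abundance read by NGS, three biological replicates, DESeq2 with apeglm shrinkage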
- PROTOCOL DESCRIPTION: shrunken log2 fold change of peptide-encoding DNA abundance (4.5 h post-induction vs induction); higher = less antimicrobial activity (less host growth inhibition)
- CONDITION PARAMETERS: time post-induction: 4.5 h; library: site-saturation at positions 5, 18, 19, 20
MEASURED ENDPOINT: shrunken log2 fold change
Give bare numbers.

Reference set (2 entries):
>>> df
             residue_codes           target_system  number
0  RRIRQRPPRLPRPRPRPPQKPRP  Escherichia coli TOP10  -0.167
1  RRIRLRPPRLPRPRPRPTSRPRP  Escherichia coli TOP10  0.0104

Hi there! I need shrunken log2 fold change for each item below, if you can.
1. RRIRKRPPRLPRPRPRPAHAPRP
2. RRIRRRPPRLPRPRPRPSCRPRP

[1.11, 0.0338]
